- measured on: T1, IGF-IR-Fc (human, UniProt P08069 31-932)
- T1 construct: range 1-932; Made in house by transient transfection, captured on Protein A on CM5 chips for kinetic analysis; also called human IGF-IR-Fc fusion protein; recombinant, immobilized IGF-IR (BIAcore); not shown: hinge and constant regions of human IgG1
- assay notes: SPR (BIAcore); IGF-IR-Fc captured on Protein A, clone in solution
observed property: koff (s⁻¹)

binder="339A01 (designed binder, Optimized derivative of 218C04) VSDVPRDLEVVAATPTSLLISWSTALKVQRYYRITYGETGGNSPVQEFTVPKHSHTATISGLKPGVDYTITVYAVTKMRDYRPISINYRTHHHHHH" observed_property=koff unit_label=s⁻¹ value=0.00067

a. 353H09 (designed binder, Optimized derivative of 218C04) VSDVPRDLEVVAATPTSLLISWSDKLKVQRYYRITYGETGGNSPVQEFTVPKHDRTATISGLKPGVDYTITVYAVTKMRDYRPISINYRTHHHHHH
b. 338A05 (designed binder, Optimized derivative of 218C04) VSDVPRDLEVVAATPTSLLISWSDSLKVSRYYRITYGETGGNSPVQEFTVPKQYHTATISGLKPGVDYTITVYAVTPSNIIGRHYGPISINYRTHHHHHH
Prompt line: Determine, for a and b , which has the greater value of koff. Use the label to indicate which entry you chose.
Response line: b
(b: 0.00033 s⁻¹, a: 0.00022 s⁻¹)
